# maps each entry to its IC50
# Tested On: ALK (Homo sapiens, UniProt Q9UM73)
# Construct: host or cells: baculovirus expression system
# Sequence (Q9UM73 19-1620): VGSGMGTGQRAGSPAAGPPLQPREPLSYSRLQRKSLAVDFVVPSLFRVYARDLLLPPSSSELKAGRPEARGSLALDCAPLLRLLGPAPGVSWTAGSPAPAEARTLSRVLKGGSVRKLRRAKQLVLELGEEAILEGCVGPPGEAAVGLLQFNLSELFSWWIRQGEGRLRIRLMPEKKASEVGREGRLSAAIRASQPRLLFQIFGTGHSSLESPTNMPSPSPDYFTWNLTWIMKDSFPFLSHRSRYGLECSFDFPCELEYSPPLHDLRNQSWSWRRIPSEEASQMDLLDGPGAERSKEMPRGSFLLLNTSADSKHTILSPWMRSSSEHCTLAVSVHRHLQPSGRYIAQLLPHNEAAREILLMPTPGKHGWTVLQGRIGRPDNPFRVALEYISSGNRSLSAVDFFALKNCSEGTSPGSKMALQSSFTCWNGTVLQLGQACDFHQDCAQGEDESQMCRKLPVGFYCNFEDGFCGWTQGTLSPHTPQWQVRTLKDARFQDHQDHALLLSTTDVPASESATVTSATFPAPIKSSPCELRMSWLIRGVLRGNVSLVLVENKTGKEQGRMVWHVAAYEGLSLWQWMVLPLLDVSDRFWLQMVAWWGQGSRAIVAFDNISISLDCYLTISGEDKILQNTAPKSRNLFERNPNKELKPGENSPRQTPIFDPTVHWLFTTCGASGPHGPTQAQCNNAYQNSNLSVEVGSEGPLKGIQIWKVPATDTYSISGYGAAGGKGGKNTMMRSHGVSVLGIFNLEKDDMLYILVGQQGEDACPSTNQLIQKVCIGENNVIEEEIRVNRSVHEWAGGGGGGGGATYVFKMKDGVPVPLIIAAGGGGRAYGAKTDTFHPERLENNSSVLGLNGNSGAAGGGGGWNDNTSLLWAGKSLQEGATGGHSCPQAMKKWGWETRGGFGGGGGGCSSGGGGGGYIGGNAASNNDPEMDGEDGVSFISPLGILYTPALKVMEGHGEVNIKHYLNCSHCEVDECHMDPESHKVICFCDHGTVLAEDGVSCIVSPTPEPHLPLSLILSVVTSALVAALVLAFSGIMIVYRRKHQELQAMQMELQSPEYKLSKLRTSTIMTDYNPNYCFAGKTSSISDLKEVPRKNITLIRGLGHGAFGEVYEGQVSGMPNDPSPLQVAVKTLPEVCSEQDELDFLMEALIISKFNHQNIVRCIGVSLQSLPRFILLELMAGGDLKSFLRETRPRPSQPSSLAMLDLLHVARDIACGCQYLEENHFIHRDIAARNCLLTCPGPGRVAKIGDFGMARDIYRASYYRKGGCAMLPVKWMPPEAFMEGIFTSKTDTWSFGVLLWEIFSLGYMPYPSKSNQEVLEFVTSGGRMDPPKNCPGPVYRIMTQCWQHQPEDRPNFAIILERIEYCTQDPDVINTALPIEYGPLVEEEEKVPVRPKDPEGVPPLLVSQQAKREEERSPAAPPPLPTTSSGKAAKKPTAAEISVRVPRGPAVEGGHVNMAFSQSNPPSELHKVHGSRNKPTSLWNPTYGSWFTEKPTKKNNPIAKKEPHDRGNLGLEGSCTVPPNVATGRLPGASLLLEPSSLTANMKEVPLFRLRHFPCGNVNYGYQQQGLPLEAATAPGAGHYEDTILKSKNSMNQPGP
# Method Description: ALK Kinase Assay (ELISA/TRF, PLC-γ substrate)
# Assay type: biochemical
# Condition: ALK Kinase Inhibition; read-out: ALK Potency

Worked cases, IC50 given:
1) CN1C(=O)Cc2cc(Nc3ncc4ccc(-c5cccnc5)n4n3)ccc21
1000 to 10000 nM
2) COc1ccccc1-c1ccc2cnc(Nc3ccc(N4CCCC(N5CCOCC5)C4)cc3)nn12 (stereo not shown)
< 100 nM
3) CN1CCN(c2ccc(Nc3ncc4c(Br)cc(-c5ccc(S(C)(=O)=O)cc5)n4n3)cc2)CC1
100 to 1000 nM

Next item in the queue.
Data point: COc1cc(Nc2ncc3ccc(-c4ccc(S(C)(=O)=O)cc4)n3n2)cc(OC)c1OC ; IC50 = 100 to 1000 nM
